Test system: Hs-578T
Method Summary: NCI tumour cell line growth inhibition, 48 h
Structures can show the parent of a compound that is named as a salt. Active and inactive are the calls of the source. No stated cut-off is given here; in the data, active = GI50 up to about 1.1 µM and inactive = higher.
This section presents compounds with their documented GI50 values.
Readout Kind: GI50

compound=CC(=O)Oc1ccc2c3c1O[C@H]1[C@H](O)CC[C@@]4(O)[C@@H](C2)N(C)CC[C@]314 readout_kind=GI50 result="> 100 µM (inactive)"
compound="COc1cc(/C=C/c2ccc(OC)c(OC)c2)cc(OC)c1 [(E)-3,4,3',5'-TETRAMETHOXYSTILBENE]" readout_kind=GI50 result="25.8 µM (inactive)"
compound=O=CN1CCN(C(=O)c2cc(Cl)cc(Cl)c2)C1=S readout_kind=GI50 result="21 µM (inactive)"
compound="CCOc1ccc2nc(NC(=O)C(=O)C(c3cnc4ccccc4n3)[N+](=O)[O-])sc2c1 (centres undefined)" readout_kind=GI50 result="> 100 µM (inactive)"
compound=O=C(NCCCCCN1CCC2(CCCCC2)CC1)C(C1CCCCC1)C1CCCCC1 readout_kind=GI50 result="3.05 µM (inactive)"
compound="CN1[C@@H]2CC[C@H]1C[C@@H](OC(c1ccccc1)c1ccccc1)C2 [BENZTROPINE MESYLATE]" readout_kind=GI50 result="13.1 µM (inactive)"
compound=CCOC(=O)c1nc2ccccc2nc1Nc1ccc(Cl)c(Cl)c1 readout_kind=GI50 result="34.4 µM (inactive)"
compound=COc1cc(/C=C2\CCc3cc(OC)c(OC)cc3C2=O)cc(OC)c1 readout_kind=GI50 result="23.9 µM (inactive)"
compound=CC(=N\N=C\c1ccccn1)/C(C)=N/N=C(C)/C(C)=N/N=C(C)/C(C)=N/N=C/c1ccccn1 readout_kind=GI50 result="> 100 µM (inactive)"

----------
System: COLO 205
Method Summary: NCI tumour cell line growth inhibition, 48 h
Activity calls are given as the source filed them. No stated cut-off is given here; in the data, active = GI50 up to about 1.1 µM and inactive = higher.
Labels: active, inactive

molecule=O=C(NCCCCCN1CCC2(CCCCC2)CC1)C(C1CCCCC1)C1CCCCC1 class=inactive
molecule="COc1cc([C@@H]2c3cc4c(cc3[C@@H](NCc3ccc(C#N)cc3)C3COC(=O)[C@@H]32)OCO4)cc(OC)c1O (some centres not stated)" class=active
molecule=COc1ccc(NC(=S)N/N=C(\c2ccccc2)c2ccccn2)cc1 class=active
molecule="COC(=O)CN(CC1O[C@@H]2OC(C)(C)O[C@@H]2C1N=[N+]=[N-])C(=O)OCc1ccccc1 (some centres not stated)" class=inactive
molecule="CCC[C@H](C)[C@H]1NC(=O)[C@@H](NC(=O)[C@@H](CC(C)C)N(C)C(=O)C2CCCN2C(=O)[C@H](C)O)[C@@H](C)OC(=O)[C@H](CC(C)C)N(C)C(=O)[C@@H]2CCCN2C(=O)[C@H](CC(C)C)NC(=O)[C@@H](C)C(=O)[C@H](C(C)C)OC(=O)C[C@@H]1O (some centres not stated)" class=active
molecule=COc1cnc2cc(C(=O)O)c3ccccc3c2c1 class=inactive
molecule="COc1cc(/C=C/c2ccc(OC)c(OC)c2)cc(OC)c1 [(E)-3,4,3',5'-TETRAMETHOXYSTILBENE]" class=inactive
molecule=CCCCCCCCSC(=O)NCCCC class=inactive
molecule="CC(C)=CC(=O)O[C@H]1C(=O)O[C@@H]2C[C@H]3[C@H](C)C(=O)C(O[C@@H]4O[C@H](CO)[C@@H](O)[C@H](O)[C@H]4O)=C[C@]3(C)[C@H]3[C@@H](O)[C@H](O)[C@]4(C(=O)O)OC[C@]32[C@@H]14 [BRUCEOSIDE D]" class=inactive
molecule=COc1ccc(/C=C2/CCCC/C2=N/O)cc1 class=inactive
molecule=CC(C)(CCc1nc2ccccc2[nH]1)C(=O)O class=inactive
molecule=CCOC(=O)c1cc(Br)c(-c2onc(C)c2Br)[nH]1 class=inactive
molecule="C=CCC12CC(=O)CCC1c1ccc(OC)cc1C2=O (configuration not stated)" class=inactive
molecule=CC(=N\N=C\c1ccccn1)/C(C)=N/N=C(C)/C(C)=N/N=C/c1ccccn1 class=inactive
molecule=O=C(Nc1ccccc1-c1nn(CO)c(=S)n(CO)c1=O)C(F)(F)F class=inactive
molecule="COc1cc2c(cc1OCCCC(=O)Nc1cc(C(=O)Nc3cc(C(=O)Nc4cc(C(=O)NCCCN(C)C)n(C)n4)n(C)n3)n(C)n1)N=CC1CCCN1C2=O (configuration not stated)" class=inactive
molecule="CC(C)N1C(C)[C@@H](c2ccccc2)O[P@@]1(=O)CC1=CCCCC1 (some centres not stated)" class=inactive

----------
Tested on: NCI-H226
Method Summary: NCI tumour cell line growth inhibition, 48 h
Active and inactive are the calls of the source. Cut-off read from the data, not from the text of the source: active = GI50 up to about 1.1 µM and inactive = higher.
Readout Kind: GI50

molecule="COc1cc(C(=O)N2CCc3c([nH]c4c([N+](=O)[O-])c(OC)ccc34)C2C)cc(OC)c1OC (stereo not drawn)" system=NCI-H226 readout_kind=GI50 result="> 100 µM (inactive)"
molecule=Brc1cccc(/C=C/CN2CCN(CCOC(c3ccccc3)c3ccccc3)CC2)c1 system=NCI-H226 readout_kind=GI50 result="19 µM (inactive)"
molecule="COc1cc(C(c2ccc3c(c2)OCO3)C2SCCCS2)cc(OC)c1OC (stereo not drawn)" system=NCI-H226 readout_kind=GI50 result="2.7 µM (inactive)"
molecule="Cc1ccc(NC(=O)CC(=O)N2N=C(N(CCC#N)c3cccc(C)c3)CC2c2ccccc2)cc1 (stereo not drawn)" system=NCI-H226 readout_kind=GI50 result="> 100 µM (inactive)"
molecule=O=C1C[C@H]2[C@H](c3ccc(Br)cc3)[C@H]3C(=O)c4ccccc4NC(=O)[C@@H]3[C@@]2(O)c2ccccc2N1 system=NCI-H226 readout_kind=GI50 result="14.4 µM (inactive)"
molecule="CCOC(=O)CC1(c2cccc3ccccc23)OC(=O)c2ccccc21 (stereo not drawn)" system=NCI-H226 readout_kind=GI50 result="67 µM (inactive)"
molecule="CCOc1ccc2nc(NC(=O)C(=O)C(c3cnc4ccccc4n3)[N+](=O)[O-])sc2c1 (stereo not drawn)" system=NCI-H226 readout_kind=GI50 result="> 100 µM (inactive)"
molecule=Cc1cc(C(=O)CBr)c(CN2C(=O)c3ccccc3C2=O)c(=O)n1C system=NCI-H226 readout_kind=GI50 result="49.5 µM (inactive)"
molecule=CC(=O)/C=c1\[nH]/c(=C\C=C\c2ccccc2)c(=O)n1/C=C1\C(=O)Oc2ccccc2C1=O system=NCI-H226 readout_kind=GI50 result="> 100 µM (inactive)"
molecule="COC(=O)C(=O)C1CCCCC(C2=NC3NN=C(N)N3C2=O)C1=O (stereo not drawn)" system=NCI-H226 readout_kind=GI50 result="> 100 µM (inactive)"
molecule=CC1=C(C(=O)Nc2ccc(C)cc2)C(c2cccc([N+](=O)[O-])c2)C(C(=O)Nc2ccc(C)cc2)=C(C)N1 system=NCI-H226 readout_kind=GI50 result="69.5 µM (inactive)"
molecule=Cc1ccc(O)c(-c2cc(-c3ccccc3)nc(/N=C\c3ccccc3)n2)c1 system=NCI-H226 readout_kind=GI50 result="30.3 µM (inactive)"
molecule="COc1cc(COC(=O)N2CCC2C(=O)O)c([N+](=O)[O-])cc1OC (stereo not drawn)" system=NCI-H226 readout_kind=GI50 result="> 100 µM (inactive)"
molecule="Cc1cn(CCCCOC(=O)NC(CCCNC(=N)N)C(=O)O)c(=O)[nH]c1=O (stereo not drawn)" system=NCI-H226 readout_kind=GI50 result="> 100 µM (inactive)"
molecule="CSc1nc(NC2OCC(O)C(O)C2O)c(N)c(=O)n1C (stereo not drawn)" system=NCI-H226 readout_kind=GI50 result="> 100 µM (inactive)"
molecule="COC(=O)C1=C(OC(=O)/C(=C/c2ccc(Cl)cc2Cl)c2ccc(Cl)cc2Cl)C(C(=O)OC)[C@@]2(O)[C@@H](C(=O)OC)[C@H](C)C[C@@H]1[C@@H]2C(=O)OC (stereo partly drawn)" system=NCI-H226 readout_kind=GI50 result="> 100 µM (inactive)"
molecule="CCOC(=O)N[C@@H]1C2CC(=O)C(O2)[C@@H]1OC (stereo partly drawn)" system=NCI-H226 readout_kind=GI50 result="> 100 µM (inactive)"
molecule=COC(=O)c1c([N+](=O)[O-])ncn1[C@H]1OC[C@@H](OC(C)=O)[C@@H](OC(C)=O)[C@@H]1OC(C)=O system=NCI-H226 readout_kind=GI50 result="> 100 µM (inactive)"

----------
Tested on: LXFL 529
Method Summary: NCI tumour cell line growth inhibition, 48 h
Active and inactive are the calls of the source. Cut-off read from the data, not from the text of the source: active = GI50 up to about 1.1 µM and inactive = higher.
Labels: TRUE (active), FALSE (inactive)

compound=COC/C=C\COC class=FALSE
compound="COc1c(Cl)c2c(c(OC)c1OC)-c1ccc(OC)c(=O)c(Cl)c1C(NC(C)=O)CC2 (stereo unspecified)" class=TRUE
compound=CCCCCCCCCc1cc(=O)c2ccc(O)cc2o1 class=FALSE
compound=COc1cc(/C=C\c2ccc(SC)cc2)cc(OC)c1OC class=TRUE
compound="CC(C)N1C(C)[C@@H](c2ccccc2)O[P@@]1(=O)CC1=CCCCC1 (stereo partly specified)" class=FALSE
compound=Cc1nc2c(ccc3ncccc32)[nH]1 class=FALSE
compound=CC(C)(C)c1nc2c(o1)/C(=N\c1ccccc1)c1ccccc1C2=O class=FALSE
compound="CC(C)=CC(C(O)c1ccccc1)S(=O)(=O)c1nccn1C (stereo unspecified)" class=FALSE
compound=O=S(O)CCCCCSSc1ccccc1 class=FALSE
compound=Cn1nc(-c2ccccc2)c2c(/C=C/c3ccccc3)onc2c1=O class=FALSE
compound=NCCCN(CCCN)CCCNCc1c2ccccc2c(CNCCCN(CCCN)CCCN)c2ccccc12 class=FALSE
compound=COc1cc(C)c(C)c(OC(=O)c2c(C)c(C)c(OC)c(C)c2OC)c1C class=FALSE
compound="Cc1ccc(NC(=O)C(=O)C(C#N)c2nc(-c3ccc(-c4ccccc4)cc3)cs2)c(C)c1 (stereo unspecified)" class=FALSE
compound=CS(=O)(=O)OCCn1cnc2nc(NC(=O)c3ccccc3)[nH]c(=O)c21 class=FALSE
compound="O=C1C2C3C=CC(C2C(=O)N1CN1CCOCC1)C1C2C(=O)N(CN4CCOCC4)C(=O)C2C31 (stereo unspecified)" class=FALSE
compound=COc1ccc(OC)c(NC(=O)CCC/C(CC(=O)c2ccc(O)c(OC)c2)=N\Nc2nnc(C)n2N)c1 class=FALSE
